All values here come from the supplement of paper PMC10567573.

B1: TLE6 (parent)
chain: FWHDTLTEQLWRIFAGVHDEKAKP

Variants of: B1
Assay: protein stability index of a GFP-peptide fusion (GPS, HEK-293T) (PSI 1-6); higher = more stable;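 note: lentivirally expressed fusions sorted by FACS into six bins by GFP to DsRed ratio, PSI derived from sequencing read proportions per bin multiplied by bin number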
Conditions: c terminus: a fixed tail appended
readout label: protein stability index

variant_id=I13S data_value=1.99
variant_id=Q9D data_value=1.97
variant_id=T7F data_value=2.03
variant_id=E20I data_value=1.99
variant_id=F1Y data_value=2.05
